B1: INTS3 (parent)
chain: FSDDEEDLNSKGKKREFRFHPIKE

- Variants of: B1
- Protocol: protein stability index of a GFP-peptide fusion (GPS, HEK-293T) (PSI 1-6); higher = more stable;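 further: lentivirally expressed fusions sorted by FACS into six bins by GFP to DsRed ratio, PSI derived from sequencing read proportions per bin multiplied by bin number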
- Setup conditions: c terminus: a fixed tail appended
Endpoint name: protein stability index
The answer should be a number; do not append a unit.

Asked: Which protein stability index value belongs to `E16M` ?
Given back: 2.74

Asked: Which protein stability index value belongs to `R15S` ?
Given back: 3.6

Asked: Which protein stability index value belongs to `H20I` ?
Given back: 4.59

Asked: Which protein stability index value belongs to `S2W` ?
Given back: 2.33

Asked: Which protein stability index value belongs to `K23V` ?
Given back: 3.06

Asked: Which protein stability index value belongs to `F1G` ?
Given back: 2.99

Asked: Which protein stability index value belongs to `G12I` ?
Given back: 2.14

Asked: Which protein stability index value belongs to `P21V` ?
Given back: 3.88

Asked: Which protein stability index value belongs to `N9G` ?
Given back: 2.82

Asked: Which protein stability index value belongs to `I22P` ?
Given back: 3.25

Asked: Which protein stability index value belongs to `E24W` ?
Given back: 2.45

Asked: Which protein stability index value belongs to `H20N` ?
Given back: 4.69

Asked: Which protein stability index value belongs to `E16T` ?
Given back: 2.67

Asked: Which protein stability index value belongs to `S10F` ?
Given back: 2.45

Asked: Which protein stability index value belongs to `F1L` ?
Given back: 2.69

Asked: Which protein stability index value belongs to `K11H` ?
Given back: 3.13

Asked: Which protein stability index value belongs to `E24S` ?
Given back: 2.11

Asked: Which protein stability index value belongs to `F1N` ?
Given back: 3.24

Asked: Which protein stability index value belongs to `S10A` ?
Given back: 2.58

Asked: Which protein stability index value belongs to `L8W` ?
Given back: 2.84

Asked: Which protein stability index value belongs to `L8K` ?
Given back: 2.78

Asked: Which protein stability index value belongs to `P21D` ?
Given back: 3.76
